These entries and their values trace back to patent US20090170886A1.

Molecular target: hAR (human androgen receptor, baculovirus/Sf9 generated extracts) (Homo sapiens, UniProt P10275)
Construct: made in house; host or cells: baculovirus/Sf9 insect cells (crude extract)
Sequence (P10275 whole entry): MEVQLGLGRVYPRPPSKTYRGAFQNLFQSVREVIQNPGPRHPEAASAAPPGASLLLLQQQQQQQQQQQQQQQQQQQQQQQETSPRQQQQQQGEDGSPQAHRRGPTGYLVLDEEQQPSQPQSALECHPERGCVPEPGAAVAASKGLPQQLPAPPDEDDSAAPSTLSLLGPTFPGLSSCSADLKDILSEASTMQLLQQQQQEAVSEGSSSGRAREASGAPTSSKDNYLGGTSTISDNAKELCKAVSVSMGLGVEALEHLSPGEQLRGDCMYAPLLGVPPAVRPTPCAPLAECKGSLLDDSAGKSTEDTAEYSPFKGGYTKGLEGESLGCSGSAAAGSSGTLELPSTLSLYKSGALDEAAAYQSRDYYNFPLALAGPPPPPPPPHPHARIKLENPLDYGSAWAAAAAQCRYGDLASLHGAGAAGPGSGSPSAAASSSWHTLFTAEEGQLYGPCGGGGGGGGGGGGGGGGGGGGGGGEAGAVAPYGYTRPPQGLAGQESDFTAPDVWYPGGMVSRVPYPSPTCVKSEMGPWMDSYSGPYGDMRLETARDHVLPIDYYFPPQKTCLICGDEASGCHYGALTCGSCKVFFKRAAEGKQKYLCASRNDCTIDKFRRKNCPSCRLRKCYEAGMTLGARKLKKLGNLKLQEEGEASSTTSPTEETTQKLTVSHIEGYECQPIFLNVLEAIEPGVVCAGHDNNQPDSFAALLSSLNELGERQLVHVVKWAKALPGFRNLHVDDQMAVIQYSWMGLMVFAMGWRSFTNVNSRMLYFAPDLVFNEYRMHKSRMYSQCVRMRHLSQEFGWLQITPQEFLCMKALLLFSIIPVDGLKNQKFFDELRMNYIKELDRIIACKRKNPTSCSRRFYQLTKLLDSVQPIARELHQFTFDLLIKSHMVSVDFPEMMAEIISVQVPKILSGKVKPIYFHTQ
Assay: AR Binding Assay (competitive binding with 3H-DHT tracer)
Details: AR Binding IC50, hAR extract, 1 nM 3H-DHT, one hour at 4° C.; mean of multiple tests
measure.name: pIC50
# log scale: pIC50 equals minus log10 of the concentration in mol/L

| molecule | pIC50 |
| --- | --- |
| CC(Oc1ccc(C#N)c(C(F)(F)F)c1)c1ccccn1 (racemic) [Example 35] | 6.74 |

## Task Consider the molecule C#CC(Oc1ccc(C#N)c(C(F)(F)F)c1)c1ccccc1 (centres unmarked) [Example 56] and give its measured pIC50.
## Result 7.13

## Task Consider the molecule COc1ccccc1COc1ccc(C#N)c(Cl)c1 [Example 67] and give its measured pIC50.
## Result 7.00

## Task Consider the molecule CCC(Oc1ccc(C#N)c(C(F)(F)F)c1)c1cccc(O)c1 (single isomer, unassigned; (-)) [Example 13] and give its measured pIC50.
## Result 7.64

## Task Consider the molecule C=CCC(Oc1ccc(C#N)c(C(F)(F)F)c1)c1cccc(O)c1 (single isomer, unassigned; (+)) [Example 18] and give its measured pIC50.
## Result 7.77
